Cited source: ChEMBL document CHEMBL5241132

Biological target: Phosphatidylinositol 4,5-bisphosphate 3-kinase catalytic subunit delta isoform (Homo sapiens, UniProt O00329)
Sequence (O00329 whole entry): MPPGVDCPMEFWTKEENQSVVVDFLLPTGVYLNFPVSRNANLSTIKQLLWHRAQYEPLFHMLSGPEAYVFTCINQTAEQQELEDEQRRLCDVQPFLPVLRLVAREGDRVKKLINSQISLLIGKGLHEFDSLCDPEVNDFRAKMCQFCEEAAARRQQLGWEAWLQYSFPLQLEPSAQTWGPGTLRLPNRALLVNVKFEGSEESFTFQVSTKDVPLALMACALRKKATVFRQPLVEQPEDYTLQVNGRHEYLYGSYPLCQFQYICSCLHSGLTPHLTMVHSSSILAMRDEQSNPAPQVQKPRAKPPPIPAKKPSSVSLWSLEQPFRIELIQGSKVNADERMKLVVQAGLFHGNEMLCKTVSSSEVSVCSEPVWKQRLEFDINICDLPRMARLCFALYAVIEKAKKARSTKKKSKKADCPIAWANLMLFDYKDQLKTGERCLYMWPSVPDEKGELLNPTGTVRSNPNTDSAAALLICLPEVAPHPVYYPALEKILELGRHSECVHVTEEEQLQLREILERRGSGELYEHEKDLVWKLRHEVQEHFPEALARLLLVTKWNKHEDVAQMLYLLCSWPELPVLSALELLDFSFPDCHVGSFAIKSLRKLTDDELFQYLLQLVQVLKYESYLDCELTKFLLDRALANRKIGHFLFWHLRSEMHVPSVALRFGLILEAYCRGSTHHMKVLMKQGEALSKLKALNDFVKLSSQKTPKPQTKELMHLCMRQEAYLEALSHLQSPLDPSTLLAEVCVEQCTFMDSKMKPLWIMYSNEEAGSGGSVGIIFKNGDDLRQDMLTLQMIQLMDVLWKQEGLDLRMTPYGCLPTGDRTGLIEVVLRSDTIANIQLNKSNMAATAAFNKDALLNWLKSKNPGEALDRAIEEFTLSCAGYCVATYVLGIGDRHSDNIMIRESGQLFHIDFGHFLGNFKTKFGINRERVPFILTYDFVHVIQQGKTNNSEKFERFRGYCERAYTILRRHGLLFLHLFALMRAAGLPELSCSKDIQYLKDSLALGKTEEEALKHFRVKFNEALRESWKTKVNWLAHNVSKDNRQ
Assay: Inhibition of PI3Kdelta (unknown origin) by ADP Glo luminescent assay
Measured IC50 by item
measured metric: IC50 (µM)

INSERT INTO results (query_smiles, measured_metric, qualifier_operator, obs_value) VALUES
  ('Nc1ccc(-c2ccc(Cl)nc2)cn1', 'IC50', '=', 47.5),
  ('CCNC(=O)Nc1ccc(-c2cnc(Cl)c(NS(=O)(=O)c3ccccc3)c2)cn1', 'IC50', '=', 0.104),
  ('CCC(=O)Nc1ccc(-c2cnc(Cl)c(NS(=O)(=O)c3ccccc3)c2)cn1', 'IC50', '=', 0.049),
  ('Nc1ccc(-c2cnc(Cl)c(F)c2)cn1', 'IC50', '>', 50),
  ('Nc1ccc(-c2cnc(F)c(N)c2)cn1', 'IC50', '>', 50),
  ('Cc1ncc(-c2ccc(N)nc2)cc1N', 'IC50', '>', 50);
